Please respond with reported koff for every item in the list.
# target: T1, recombinant human CD4 (catalogue number: 514-CD/CF, manufactured by R&D Systems) (human, UniProt P01730 26-390)
# T1 construct: Bought protein (R&D Systems); also called recombinant CD4
# assay.text: SPR, Biacore T100; antibody captured on anti-human IgG chip, recombinant human CD4 flowed; 1:1 binding model

Prompt: Which measured koff value corresponds to anti-CD4 chimeric antibody KM4045 (antibody, V domains shown, Variable regions of rat KM4065 joined to a '113F type' heavy chain constant region and a human kappa constant region; In the 113F type, part of the human IgG1 Fc is substituted with human IgG3 Fc (US2007/0148165); Expressed in FUT8 knockout CHO cells (0% fucose)) VH: EVQLVESGGGLVQPGRSMKLSCAASGFTFSNYGMAWVRQAPTKGLEWVATISYDGSITYYRDSVKGRFTISRDHAKSTLYLQMNSLRSEDTATYYCTREEQYSSWYFDFWGPGIMVTVSS VL: DIVLTQSPALAVSLGQRATISCRASQSVSISSHDLMQWYQQKPGQQPKLLIYDAFNLASGIPVRFSGSGSGTDFTLTIDPVQADDIATYYCQQSKDDPYTFGAGTKLELK ?
Completion: < 1e-05 s⁻¹

Prompt: Which measured koff value corresponds to anti-CD4 human antibody 6G5-1 (antibody, V domains shown) VH: QVQLQQWGAGLLKPSETLSLTCAVYGGSFSGYYWSWIRQPPGKGLEWIGEINHSGSTNYNPSLKSRVTISVDTSKNQFSLKLSSVTAADTAVYYCARVINWFDPWGQGTLVTVSS VL: DIQMTQSPSSVSASVGDRVTITCRASQDISSWLAWYQHKPGKAPKLLIYAASSLQSGVPSRFSGSGSGTDFTLTISSLQPEDFATYYCQQANSFPYTFGQGTKLEIKR ?
Completion: 0.000824 s⁻¹

Prompt: Which measured koff value corresponds to anti-CD4 humanized antibody HV4LV6 (antibody, V domains shown, Expressed from the humanized antibody expression vector pKANTEX93) VH: EVQLVESGGGLVQPGRSMRLSCAASGFTFSNYGMAWVRQAPGKGLEWVATISYDGSITYYRDSVKGRFTISRDNSKNTLYLQMNSLRAEDTATYYCTREEQYSSWYFDFWGQGILVTVSS VL: DIQLTQSPSSLSVSLGDRATITCRASQSVSISSHDLMQWYQQKPGKQPKLLIYDAFNLASGIPSRFSGSGSGTDFTLTISSVQPEDFATYYCQQSKDDPYTFGQGTKLEIK ?
Completion: < 1e-05 s⁻¹

Prompt: Which measured koff value corresponds to anti-CD4 humanized antibody HV0LV0 (antibody, V domains shown, CDRs of KM4065 grafted into human framework regions; Expressed from the humanized antibody expression vector pKANTEX93) VH: EVQLVESGGGLVQPGRSLRLSCAASGFTFSNYGMAWVRQAPGKGLEWVATISYDGSITYYRDSVKGRFTISRDNSKNTLYLQMNSLRAEDTAVYYCAREEQYSSWYFDFWGQGTLVTVSS VL: DIQLTQSPSSLSASVGDRVTITCRASQSVSISSHDLMQWYQQKPGKAPKLLIYDAFNLASGVPSRFSGSGSGTDFTLTISSLQPEDFATYYCQQSKDDPYTFGQGTKLEIK ?
Completion: 2.86e-05 s⁻¹

Prompt: Which measured koff value corresponds to anti-CD4 humanized antibody HV3LV0 (antibody, V domains shown, Expressed from the humanized antibody expression vector pKANTEX93) VH: EVQLVESGGGLVQPGRSLRLSCAASGFTFSNYGMAWVRQAPGKGLEWVATISYDGSITYYRDSVKGRFTISRDNSKNTLYLQMNSLRAEDTATYYCTREEQYSSWYFDFWGQGILVTVSS VL: DIQLTQSPSSLSASVGDRVTITCRASQSVSISSHDLMQWYQQKPGKAPKLLIYDAFNLASGVPSRFSGSGSGTDFTLTISSLQPEDFATYYCQQSKDDPYTFGQGTKLEIK ?
Completion: < 1e-05 s⁻¹

Prompt: Which measured koff value corresponds to anti-CD4 humanized antibody HV2LV0 (antibody, V domains shown, Expressed from the humanized antibody expression vector pKANTEX93; also called KM8045; humanized antibody KM8045) VH: EVQLVESGGGLVQPGRSLRLSCAASGFTFSNYGMAWVRQAPGKGLEWVATISYDGSITYYRDSVKGRFTISRDNSKNTLYLQMNSLRAEDTAVYYCTREEQYSSWYFDFWGQGILVTVSS VL: DIQLTQSPSSLSASVGDRVTITCRASQSVSISSHDLMQWYQQKPGKAPKLLIYDAFNLASGVPSRFSGSGSGTDFTLTISSLQPEDFATYYCQQSKDDPYTFGQGTKLEIK ?
Completion: < 1e-05 s⁻¹

Prompt: Which measured koff value corresponds to anti-CD4 humanized antibody HV4LV0 (antibody, V domains shown, Expressed from the humanized antibody expression vector pKANTEX93) VH: EVQLVESGGGLVQPGRSMRLSCAASGFTFSNYGMAWVRQAPGKGLEWVATISYDGSITYYRDSVKGRFTISRDNSKNTLYLQMNSLRAEDTATYYCTREEQYSSWYFDFWGQGILVTVSS VL: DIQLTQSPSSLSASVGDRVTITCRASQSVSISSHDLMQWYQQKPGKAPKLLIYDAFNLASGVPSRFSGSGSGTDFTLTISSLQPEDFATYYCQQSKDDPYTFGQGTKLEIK ?
Completion: < 1e-05 s⁻¹
